Cited source for all entries: patent US9090593B2

Below: a set of entries, each annotated with reported pIC50.
Target: Pim-1 stably transfected into the U2OS human osteogenic sarcoma line (Homo sapiens)
Construct: expressed in transfected cells; host or cells: U2OS human osteogenic sarcoma line
Sequence (P11309 whole entry): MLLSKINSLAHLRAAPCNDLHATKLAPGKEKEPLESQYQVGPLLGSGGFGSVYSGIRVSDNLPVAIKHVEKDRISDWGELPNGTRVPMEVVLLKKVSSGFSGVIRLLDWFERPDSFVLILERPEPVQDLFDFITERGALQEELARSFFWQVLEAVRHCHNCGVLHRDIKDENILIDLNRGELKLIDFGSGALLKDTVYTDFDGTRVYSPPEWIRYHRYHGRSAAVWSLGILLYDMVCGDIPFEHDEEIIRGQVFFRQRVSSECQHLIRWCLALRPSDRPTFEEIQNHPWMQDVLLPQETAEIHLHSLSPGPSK
Assay: Pim cell assay, phospho-BAD normalized against total BAD, U2OS stably transfected with Pim-1
Assay type: cell-based
Conditions: U2OS stably transfected with Pim-1; phospho-BAD normalized against total BAD; 29 min incubation; read-out: Pim1_Cell_IC50_
pIC50: −log10 of the molar value.
Observable: pIC50

[[record]]
molecule = "CC1(C)CC1c1ccc2[nH]cc(-c3cncc(O[C@@H]4CCCNC4)n3)c2c1 (stereo partly shown) [Example 312]"
assay_target = "Pim-1 stably transfected into the U2OS human osteogenic sarcoma line (Homo sapiens)"
observable = "pIC50"
test_value = 5.88

[[record]]
molecule = "COc1cc(-c2n[nH]c3ccc(-c4c(F)cccc4F)cc23)nc(N2CCC(N)CC2)n1 [Example 506]"
assay_target = "Pim-1 stably transfected into the U2OS human osteogenic sarcoma line (Homo sapiens)"
observable = "pIC50"
test_value = 5.43

[[record]]
molecule = "COC(=O)c1ccc2[nH]nc(-c3cncc(N4CCC(N)CC4)n3)c2c1 [Example 558]"
assay_target = "Pim-1 stably transfected into the U2OS human osteogenic sarcoma line (Homo sapiens)"
observable = "pIC50"
test_value = 6.81

[[record]]
molecule = "c1cc(N2CCOCC2)ccc1-c1ccc2[nH]cc(-c3cncc(O[C@@H]4CCCNC4)n3)c2c1 [Example 309]"
assay_target = "Pim-1 stably transfected into the U2OS human osteogenic sarcoma line (Homo sapiens)"
observable = "pIC50"
test_value = 6.90

[[record]]
molecule = "c1cc(-c2ccc3[nH]nc(-c4cncc(O[C@@H]5CCCNC5)n4)c3c2)nc(NC2CC2)n1 [Example 242]"
assay_target = "Pim-1 stably transfected into the U2OS human osteogenic sarcoma line (Homo sapiens)"
observable = "pIC50"
test_value = 6.43

[[record]]
molecule = "Fc1cccc(F)c1-c1ccc2[nH]nc(-c3cncc(SC4CCCNC4)n3)c2c1 (single isomer, unassigned) [Example 414]"
assay_target = "Pim-1 stably transfected into the U2OS human osteogenic sarcoma line (Homo sapiens)"
observable = "pIC50"
test_value = 5.81

[[record]]
molecule = "Nc1ccc(-c2ccc3[nH]cc(-c4cncc(O[C@@H]5CCCNC5)n4)c3c2)cc1OC(F)(F)F [Example 341]"
assay_target = "Pim-1 stably transfected into the U2OS human osteogenic sarcoma line (Homo sapiens)"
observable = "pIC50"
test_value = 5.90

[[record]]
molecule = "COC(=O)c1ccc2[nH]nc(-c3cncc(N[C@@H]4CCCNC4)n3)c2c1 [Example 473]"
assay_target = "Pim-1 stably transfected into the U2OS human osteogenic sarcoma line (Homo sapiens)"
observable = "pIC50"
test_value = 6.66

[[record]]
molecule = "Cc1ccn(-c2cccc(-c3ccc4[nH]cc(-c5cncc(O[C@@H]6CCCNC6)n5)c4c3)n2)n1 [Example 307]"
assay_target = "Pim-1 stably transfected into the U2OS human osteogenic sarcoma line (Homo sapiens)"
observable = "pIC50"
test_value = 5.80

[[record]]
molecule = "CC(=O)Nc1ccc(-c2ccc3[nH]cc(-c4cncc(O[C@@H]5CCCNC5)n4)c3c2)cc1 [Example 327]"
assay_target = "Pim-1 stably transfected into the U2OS human osteogenic sarcoma line (Homo sapiens)"
observable = "pIC50"
test_value = 6.18

[[record]]
molecule = "CC(C)NC(=O)c1ccc(F)c(-c2ccc3[nH]nc(-c4cncc(N[C@@H]5CCCNC5)n4)c3c2)c1 [Example 362]"
assay_target = "Pim-1 stably transfected into the U2OS human osteogenic sarcoma line (Homo sapiens)"
observable = "pIC50"
test_value = 6.06

[[record]]
molecule = "c1cc2[nH]nc(-c3cncc(N[C@@H]4CCCNC4)n3)c2cc1-c1cncc(C2CC2)n1 [Example 243]"
assay_target = "Pim-1 stably transfected into the U2OS human osteogenic sarcoma line (Homo sapiens)"
observable = "pIC50"
test_value = 7.00

[[record]]
molecule = "NC1CCN(c2cncc(-c3n[nH]c4ccc(-c5cncc(NC6CC6)n5)cc34)n2)CC1 [Example 509]"
assay_target = "Pim-1 stably transfected into the U2OS human osteogenic sarcoma line (Homo sapiens)"
observable = "pIC50"
test_value = 7.29

[[record]]
molecule = "NC1CCN(c2cc(O)nc(-c3c[nH]c4ccc(-c5c(F)cccc5F)cc34)n2)CC1 [Example 566]"
assay_target = "Pim-1 stably transfected into the U2OS human osteogenic sarcoma line (Homo sapiens)"
observable = "pIC50"
test_value = 5.25

[[record]]
molecule = "c1cc2c(cc1-c1ccc3[nH]cc(-c4cncc(O[C@@H]5CCCNC5)n4)c3c1)OCO2 [Example 343]"
assay_target = "Pim-1 stably transfected into the U2OS human osteogenic sarcoma line (Homo sapiens)"
observable = "pIC50"
test_value = 5.92

[[record]]
molecule = "CC(C)Oc1cccc(-c2ccc3[nH]cc(-c4cncc(O[C@@H]5CCCNC5)n4)c3c2)c1 [Example 360]"
assay_target = "Pim-1 stably transfected into the U2OS human osteogenic sarcoma line (Homo sapiens)"
observable = "pIC50"
test_value = 5.57

[[record]]
molecule = "NC1CCN(c2ccnc(-c3n[nH]c4ccc(-c5c(F)cccc5F)cc34)n2)CC1 [Example 516]"
assay_target = "Pim-1 stably transfected into the U2OS human osteogenic sarcoma line (Homo sapiens)"
observable = "pIC50"
test_value = 6.06

[[record]]
molecule = "COC(=O)c1ccc2[nH]nc(-c3ccnc(N[C@@H]4CCCNC4)n3)c2c1 [Example 490]"
assay_target = "Pim-1 stably transfected into the U2OS human osteogenic sarcoma line (Homo sapiens)"
observable = "pIC50"
test_value = 6.28

[[record]]
molecule = "COC(=O)c1ccc2[nH]nc(-c3ccnc(NC4CCNCC4)n3)c2c1 [Example 489]"
assay_target = "Pim-1 stably transfected into the U2OS human osteogenic sarcoma line (Homo sapiens)"
observable = "pIC50"
test_value = 6.69

[[record]]
molecule = "CC1(Oc2cncc(-c3n[nH]c4ccc(-c5c(F)cccc5F)cc34)n2)CCCNC1 (stereo not shown) [Example 417]"
assay_target = "Pim-1 stably transfected into the U2OS human osteogenic sarcoma line (Homo sapiens)"
observable = "pIC50"
test_value = 5.83

[[record]]
molecule = "O=C(Nc1ccc(-c2ccc3[nH]cc(-c4cncc(O[C@@H]5CCCNC5)n4)c3c2)cc1)C1CC1 [Example 311]"
assay_target = "Pim-1 stably transfected into the U2OS human osteogenic sarcoma line (Homo sapiens)"
observable = "pIC50"
test_value = 6.39

[[record]]
molecule = "CC(C)Oc1cncc(-c2ccc3[nH]cc(-c4nnc(N[C@@H]5CCCNC5)o4)c3c2)n1 [Example 518]"
assay_target = "Pim-1 stably transfected into the U2OS human osteogenic sarcoma line (Homo sapiens)"
observable = "pIC50"
test_value = 5.16

[[record]]
molecule = "Cc1ccccc1-c1ccc2[nH]nc(-c3cncc(O[C@H]4CNCCC45CC5)n3)c2c1 [Example 404]"
assay_target = "Pim-1 stably transfected into the U2OS human osteogenic sarcoma line (Homo sapiens)"
observable = "pIC50"
test_value = 5.59

[[record]]
molecule = "NC1CCN(c2cncc(-c3n[nH]c4ccc(-c5cc6[nH]ccc6cn5)cc34)n2)CC1 [Example 504]"
assay_target = "Pim-1 stably transfected into the U2OS human osteogenic sarcoma line (Homo sapiens)"
observable = "pIC50"
test_value = 5.12

[[record]]
molecule = "COc1ccc(-c2ccc3[nH]cc(-c4cncc(O[C@@H]5CCCNC5)n4)c3c2)cc1 [Example 321]"
assay_target = "Pim-1 stably transfected into the U2OS human osteogenic sarcoma line (Homo sapiens)"
observable = "pIC50"
test_value = 6.18

[[record]]
molecule = "CN1CCOc2cc(-c3ccc4[nH]cc(-c5cncc(O[C@@H]6CCCNC6)n5)c4c3)ccc21 [Example 347]"
assay_target = "Pim-1 stably transfected into the U2OS human osteogenic sarcoma line (Homo sapiens)"
observable = "pIC50"
test_value = 6.56

[[record]]
molecule = "c1cc2[nH]nc(-c3cncc(NC4CC4)n3)c2cc1-c1cncc(C2CC2)n1 [Example 391]"
assay_target = "Pim-1 stably transfected into the U2OS human osteogenic sarcoma line (Homo sapiens)"
observable = "pIC50"
test_value = 6.94

[[record]]
molecule = "N#Cc1ccccc1-c1ccc2[nH]cc(-c3cncc(O[C@@H]4CCCNC4)n3)c2c1 [Example 326]"
assay_target = "Pim-1 stably transfected into the U2OS human osteogenic sarcoma line (Homo sapiens)"
observable = "pIC50"
test_value = 6.50

[[record]]
molecule = "Cc1n[nH]c2ncc(-c3ccc4[nH]cc(-c5cncc(O[C@@H]6CCCNC6)n5)c4c3)cc12 [Example 339]"
assay_target = "Pim-1 stably transfected into the U2OS human osteogenic sarcoma line (Homo sapiens)"
observable = "pIC50"
test_value = 5.59

[[record]]
molecule = "COc1ccc(-c2ccc3[nH]cc(-c4cncc(O[C@@H]5CCCNC5)n4)c3c2)cn1 [Example 310]"
assay_target = "Pim-1 stably transfected into the U2OS human osteogenic sarcoma line (Homo sapiens)"
observable = "pIC50"
test_value = 6.53

[[record]]
molecule = "COc1c(C)cc(-c2ccc3[nH]cc(-c4cncc(O[C@@H]5CCCNC5)n4)c3c2)cc1C [Example 331]"
assay_target = "Pim-1 stably transfected into the U2OS human osteogenic sarcoma line (Homo sapiens)"
observable = "pIC50"
test_value = 5.89

